tested on: SN12C; assay: NCI tumour cell line growth inhibition, 48 h
Calls of active or inactive are those of the source. Cut-off read from the data, not from the text of the source: active = GI50 up to about 1.1 µM and inactive = higher.
Parameter call: string, one of true = active, false = inactive

How did this test come out for O=C(O)c1ccccc1-c1ccccc1C(=O)Nc1ccc2c(c1)nc(O)c1ccccc12 ?
false

Consider the additional compound presented here.
How did this test come out for CO[C@](C(=O)OC[C@H]1[C@@H](COC(C)=O)[C@@H]2O[C@H]1c1cc3c(cc12)OCO3)(c1ccccc1)C(F)(F)F ?
false

###

tested on: UACC-62; test: NCI tumour cell line growth inhibition, 48 h
The source made the active and inactive calls. Rule as the data show it: active = GI50 up to about 1.1 µM and inactive = higher.
experimental-endpoint: GI50

Solved entries:
For the molecule shown here, O=C(O)CC/C(=N\Nc1nsc2ccccc12)c1ccccc1 , give the reported GI50.
58.5 µM (inactive)

For the molecule shown here, COc1ccc(C2(CC(C)C)CCN(S(=O)(=O)c3ccc(C)cc3)C2)cc1OC (stereo not given) , give the reported GI50.
43.9 µM (inactive)

For the molecule shown here, CCCCCCCCCCCCCCC(O)C1CCC(C(O)CCC(O)CCCCCC(O)CC2=CC(C)OC2=O)O1 (stereo not given) , give the reported GI50.
2.33 µM (inactive)

For the molecule shown here, COCCN(CCNC(=O)c1cccc2c(N)c3cccc(C)c3nc12)CCOC , give the reported GI50.
2.94 µM (inactive)

For the molecule shown here, NC(=O)c1cccc(C2OC(COP(=O)(O)O)C(O)C2O)c1 (stereo not given) , give the reported GI50.
> 50 µM (inactive)

New cases:
For the molecule shown here, CC1CCC(C(C)C)C(O[C@@H]2OC(=O)C[C@@H]2Sc2ccccc2)C1 (stereo not given in full) , give the reported GI50.
24.7 µM (inactive)

For the molecule shown here, CCOC(=O)c1cc(C2(O)CCN(CC(C)CC)C2=O)c(-c2cc(C)no2)[nH]1 (stereo not given) , give the reported GI50.
> 100 µM (inactive)

For the molecule shown here, CNC(=S)/C(C#N)=C(\N)N1CCCC1 , give the reported GI50.
> 100 µM (inactive)

For the molecule shown here, Cc1sc2nc3n(c(=O)c2c1C)N=C(c1ccccc1)CS3 , give the reported GI50.
> 100 µM (inactive)

For the molecule shown here, Oc1cc(N2CCCC2)ccc1/C=N/N1C(=S)N(c2ccccc2)C(=N\c2ccccc2)/C1=N/c1ccccc1 , give the reported GI50.
97.7 µM (inactive)

###

tested on: DU-145; assay: NCI tumour cell line growth inhibition, 48 h
Activity calls are given as the source filed them. Cut-off read from the data, not from the text of the source: active = GI50 up to about 1.1 µM and inactive = higher.
The following compounds are shown together with reported GI50 values.

Solved entries:
For the compound shown here, CC/C(=C\c1ccc(OC)cc1)c1ccc(OC)cc1 , give the reported GI50.
> 100 µM (inactive)

For the compound shown here, COc1ccc2c(-c3ccc(OCCN(C)C)cc3)c(Oc3ccccc3)c(=O)oc2c1 , give the reported GI50.
12.2 µM (inactive)

For the compound shown here, Oc1cc(N2CCCC2)ccc1/C=N/N1C(=S)N(c2ccccc2)C(=N\c2ccccc2)/C1=N/c1ccccc1 , give the reported GI50.
> 100 µM (inactive)

For the compound shown here, O=S1(=O)OCCOS(=O)(=O)C1F , give the reported GI50.
> 100 µM (inactive)

New cases:
For the compound shown here, COC(=O)c1ccc2cc(O)ccc2c1 , give the reported GI50.
> 100 µM (inactive)

For the compound shown here, Cc1ccc([N+](=O)[O-])cc1S(=O)(=O)Nc1ccc(C2=NN(S(=O)(=O)c3cc([N+](=O)[O-])ccc3C)C(c3ccccc3)C2)cc1 (stereo not drawn) , give the reported GI50.
42.3 µM (inactive)

For the compound shown here, O=C(C#Cc1ccccc1)N1CCCCC1 , give the reported GI50.
55.8 µM (inactive)

For the compound shown here, COc1cc(CN(C)N2C(=O)c3cccc4cc([N+](=O)[O-])cc(c34)C2=O)cc(OC)c1OC , give the reported GI50.
> 100 µM (inactive)
